target of assay: T1, KDR (kinase domain receptor, VEGFR-2) expressed on cells (UniProt P35968 20-1356, limits assumed)
T1 construct: whole, on cells; The same molecule is used for KDR on CHO-KDR cells and for VEGF-R2 on HUV-EC cells; the cells are named under assay; also called KDR/Flk-1; VR2
T1 sequence (P35968 20-1356 limits assumed): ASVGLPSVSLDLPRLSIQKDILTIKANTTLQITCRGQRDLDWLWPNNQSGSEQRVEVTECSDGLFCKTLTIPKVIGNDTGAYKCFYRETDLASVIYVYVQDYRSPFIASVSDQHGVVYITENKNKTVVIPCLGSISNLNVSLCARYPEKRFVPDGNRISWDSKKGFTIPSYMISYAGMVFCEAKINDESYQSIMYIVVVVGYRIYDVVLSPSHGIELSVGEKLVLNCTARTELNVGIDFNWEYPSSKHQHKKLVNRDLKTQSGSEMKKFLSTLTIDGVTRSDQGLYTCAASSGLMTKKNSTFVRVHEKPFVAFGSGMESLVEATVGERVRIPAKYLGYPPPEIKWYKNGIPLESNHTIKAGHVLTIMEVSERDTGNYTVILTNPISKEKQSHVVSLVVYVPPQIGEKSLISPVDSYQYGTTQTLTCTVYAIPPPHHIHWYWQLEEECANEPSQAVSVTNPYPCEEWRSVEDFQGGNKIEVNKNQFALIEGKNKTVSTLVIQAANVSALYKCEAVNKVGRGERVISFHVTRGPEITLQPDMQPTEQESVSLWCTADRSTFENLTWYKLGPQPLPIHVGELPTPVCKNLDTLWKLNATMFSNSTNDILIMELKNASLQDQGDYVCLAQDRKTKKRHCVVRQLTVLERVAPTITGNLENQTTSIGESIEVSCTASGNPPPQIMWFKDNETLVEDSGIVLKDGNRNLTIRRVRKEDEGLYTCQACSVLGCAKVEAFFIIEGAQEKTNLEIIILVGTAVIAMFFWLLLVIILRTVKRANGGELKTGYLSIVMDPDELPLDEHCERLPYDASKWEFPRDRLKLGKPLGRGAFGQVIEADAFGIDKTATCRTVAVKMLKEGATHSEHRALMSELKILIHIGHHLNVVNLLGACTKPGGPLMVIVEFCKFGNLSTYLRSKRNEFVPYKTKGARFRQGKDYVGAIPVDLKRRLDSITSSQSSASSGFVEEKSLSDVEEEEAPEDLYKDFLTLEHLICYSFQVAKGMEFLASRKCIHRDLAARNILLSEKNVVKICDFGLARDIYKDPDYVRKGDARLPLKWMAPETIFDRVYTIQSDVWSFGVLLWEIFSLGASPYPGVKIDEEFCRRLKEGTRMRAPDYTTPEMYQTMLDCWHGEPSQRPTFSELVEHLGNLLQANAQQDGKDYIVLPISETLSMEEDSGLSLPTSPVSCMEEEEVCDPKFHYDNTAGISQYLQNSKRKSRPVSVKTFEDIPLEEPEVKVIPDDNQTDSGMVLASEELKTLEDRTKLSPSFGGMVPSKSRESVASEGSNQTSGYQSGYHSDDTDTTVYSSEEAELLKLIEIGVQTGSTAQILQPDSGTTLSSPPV
assay name: competition with 125I-VEGF for binding to CHO-KDR cells
property name: IC50

binder | property name | measurement
ATWLPPR (Synthetic peptide (Neosystem); also called V1 peptide) [synthetic peptide V1 (ATWLPPR)] | IC50 | ~80 µM

Data origin: patent US20030171289A1
